Target: recombinant human Lp-PLA2 (Homo sapiens, UniProt Q13093)
Sequence (Q13093 22-441): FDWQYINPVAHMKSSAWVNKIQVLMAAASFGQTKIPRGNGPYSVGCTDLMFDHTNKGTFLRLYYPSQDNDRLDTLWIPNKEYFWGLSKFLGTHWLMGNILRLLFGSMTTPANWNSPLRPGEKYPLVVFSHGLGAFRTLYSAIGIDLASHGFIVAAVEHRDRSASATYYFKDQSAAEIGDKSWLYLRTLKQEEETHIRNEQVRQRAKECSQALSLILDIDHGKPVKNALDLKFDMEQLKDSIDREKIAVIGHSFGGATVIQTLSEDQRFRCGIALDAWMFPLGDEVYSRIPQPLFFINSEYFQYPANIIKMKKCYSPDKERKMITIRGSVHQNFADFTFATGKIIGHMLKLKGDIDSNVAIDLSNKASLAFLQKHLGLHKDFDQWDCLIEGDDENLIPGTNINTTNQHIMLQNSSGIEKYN
Assay: Recombinant human Lp-PLA2 assay (rhLp-PLA2, PED6 assay)
Assay type: biochemical
Details: lower bounds; read-out: pIC50 values in the PED6 assay (converted)
Each entry below carries its reported IC50.

CN1c2cc(OCc3cc(F)ccc3F)nc(=O)n2CC1(C)C
≤ 10 nM
[2H]C([2H])(Oc1cc2n(c(=O)n1)CC(C)(C)N2C([2H])([2H])[2H])c1cccc(F)c1F
≤ 10 nM
C[C@H]1Cn2c(cc(OCc3ccc(F)c(C#N)c3)nc2=O)N1
≤ 10 nM
CN1c2cc(OCc3ccc(Oc4ccc(Cl)nc4)c(F)c3)nc(=O)n2CC1(C)C
≤ 1 nM
CC1(C)Cn2c(cc(OCc3cc(F)c(Oc4cncc(C(F)(F)F)c4)c(F)c3)nc2=O)N1
≤ 1 nM
C[C@H]1Cn2c(cc(OCc3ccc(F)c(C#N)c3)nc2=O)N1C
≤ 10 nM

Input line: Query: IC50; subject: "CCN1c2cc(OCc3cc(F)cc(F)c3)nc(=O)n2CC1(C)C"
Output line: ≤ 10 nM

Input line: Please give the result for "C[C@@H]1Cn2c(cc(OCc3ccc(F)c(C#N)c3)nc2=O)N1C" too.
Output line: ≤ 10 nM

----------
Biological target: recombinant human Lp-PLA2 (Homo sapiens)
Sequence (Q13093 22-441): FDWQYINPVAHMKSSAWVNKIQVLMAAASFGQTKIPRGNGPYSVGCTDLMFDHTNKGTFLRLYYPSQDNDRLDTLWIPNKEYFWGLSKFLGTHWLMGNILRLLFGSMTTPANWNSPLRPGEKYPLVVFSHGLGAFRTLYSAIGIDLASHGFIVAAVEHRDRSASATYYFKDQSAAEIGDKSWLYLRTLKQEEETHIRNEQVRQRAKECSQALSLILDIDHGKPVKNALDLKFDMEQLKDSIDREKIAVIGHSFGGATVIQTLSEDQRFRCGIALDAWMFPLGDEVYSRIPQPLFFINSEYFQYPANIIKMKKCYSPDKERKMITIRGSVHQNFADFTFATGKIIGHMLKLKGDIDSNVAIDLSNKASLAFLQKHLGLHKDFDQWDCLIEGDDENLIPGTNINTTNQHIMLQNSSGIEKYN
Test: Recombinant human Lp-PLA2 assay (rhLp-PLA2, PED6 assay)
Type: biochemical
Conditions: read-out: rhLp-PLA2 (PED6 assay) (pIC50) (converted)
Description: (1) Recombinant Human Lp-PLA2 Assay (rhLp-PLA2) (Also Referred to as “PED6” Assay) […] The PED6 assay was run as an unquenched 10 μL assay. […] The plates were read for fluorescence intensity at ex: 480/em: 540 using ViewLux microplate imager for Envision spectrofluoroimeters pIC50 data, curve and QC analysis was conducted by using XL fit module in Excel.
Recorded endpoint: IC50 (nM)

C[C@H]1Cn2c(cc(OCc3cc(F)c(Oc4ccnc(C(F)(F)F)c4)c(F)c3)nc2=O)N1C
0.0631

(1) CN1c2cc(OCc3ccc(Oc4ccnc(F)c4)c(F)c3)nc(=O)n2CC1(C)C
(2) CC(C)N1c2cc(OCc3cc(F)cc(F)c3)nc(=O)n2CC1(C)C
(3) CN1c2cc(OCc3ccc(Oc4ccnc(C(F)(F)F)c4)c(F)c3)nc(=O)n2CC1(C)C
Input line: Order the records, beginning with the lowest IC50 and ending with the highest. Output spec: labels arranged per the requested ranking.
Output line: 3, 1, 2

----------
biological target: recombinant human Lp-PLA2 (Homo sapiens); assay: Recombinant human Lp-PLA2 assay (rhLp-PLA2, PED6 assay); format: biochemical; details: lower bounds; read-out: pIC50 values in the PED6 assay (converted)
Recorded endpoint: IC50

Input line: // returns reported IC50 for input CN1c2cc(OCc3ccc(Oc4ccnc(Cl)c4)c(F)c3)nc(=O)n2CC1(C)C [Example E65]
Output line: ≤ 1 nM

----------
Target: recombinant human Lp-PLA2 (Homo sapiens, UniProt Q13093)
Sequence (Q13093 22-441): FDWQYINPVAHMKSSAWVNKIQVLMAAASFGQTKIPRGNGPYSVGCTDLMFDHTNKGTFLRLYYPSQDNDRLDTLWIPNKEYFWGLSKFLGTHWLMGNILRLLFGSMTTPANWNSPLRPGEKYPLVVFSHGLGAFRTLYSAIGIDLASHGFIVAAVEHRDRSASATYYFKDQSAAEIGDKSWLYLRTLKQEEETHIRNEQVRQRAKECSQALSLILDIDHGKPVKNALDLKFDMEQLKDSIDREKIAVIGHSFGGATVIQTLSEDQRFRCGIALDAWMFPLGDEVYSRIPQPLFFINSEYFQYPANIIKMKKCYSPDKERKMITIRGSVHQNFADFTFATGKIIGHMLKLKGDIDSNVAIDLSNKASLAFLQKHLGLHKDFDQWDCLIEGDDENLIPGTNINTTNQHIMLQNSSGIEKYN
Experiment: Recombinant human Lp-PLA2 assay (rhLp-PLA2, PED6 assay)
Format: biochemical
Conditions: lower bounds; read-out: pIC50 values in the PED6 assay (converted)
Recorded endpoint: IC50

[2H]C([2H])(Oc1cc2n(c(=O)n1)CC(C)(C)N2C(C)C)c1cc(F)cc(F)c1
≤ 1 nM
C[C@H]1Cn2c(cc(OCc3ccc(Oc4ccnc(C(F)(F)F)c4)c(F)c3)nc2=O)N1
≤ 1 nM
[2H]C([2H])(Oc1cc2n(c(=O)n1)C[C@H](C)N2C)c1ccc(F)c(F)c1
≤ 10 nM
CC1(C)Cn2c(cc(OCc3ccc(Oc4ccnc(F)c4)c(F)c3)nc2=O)N1
≤ 1 nM
CC1Cn2c(cc(OCc3ccc(F)c(F)c3)nc2=O)N1C (stereo not shown) [Example E2]
≤ 10 nM

Input line: So what does the record say about IC50 for "C[C@H]1Cn2c(cc(OCc3ccc(Oc4ccc(F)cc4)c(C#N)c3)nc2=O)N1C" ?
Output line: ≤ 1 nM

Input line: Can you handle "CN1c2cc(OCc3ccc(F)cc3F)nc(=O)n2CC1(C)C" next?
Output line: ≤ 10 nM

----------
Target: recombinant human Lp-PLA2 (Homo sapiens, UniProt Q13093)
Sequence (Q13093 22-441): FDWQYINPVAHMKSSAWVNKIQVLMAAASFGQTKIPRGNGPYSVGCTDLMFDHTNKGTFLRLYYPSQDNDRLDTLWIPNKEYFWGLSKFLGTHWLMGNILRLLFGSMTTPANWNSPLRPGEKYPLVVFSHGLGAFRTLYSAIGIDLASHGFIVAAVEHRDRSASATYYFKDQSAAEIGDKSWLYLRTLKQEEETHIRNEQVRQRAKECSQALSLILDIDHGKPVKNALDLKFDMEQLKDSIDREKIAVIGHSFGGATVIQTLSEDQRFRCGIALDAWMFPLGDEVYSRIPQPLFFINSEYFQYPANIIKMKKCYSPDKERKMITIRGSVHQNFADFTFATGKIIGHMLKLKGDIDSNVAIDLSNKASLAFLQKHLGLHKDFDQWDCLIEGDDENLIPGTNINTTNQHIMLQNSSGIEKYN
Experiment: Recombinant human Lp-PLA2 assay (rhLp-PLA2, PED6 assay)
Assay type: biochemical
Details: read-out: rhLp-PLA2 (PED6 assay) (pIC50) (converted)
Recorded endpoint: IC50 (nM)

CN1c2cc(OCc3cc(F)c(Oc4ccc(F)nc4)c(F)c3)nc(=O)n2CC1(C)C
0.0794

(A) [2H]C([2H])(Oc1cc2n(c(=O)n1)CC(C)(C)N2C(C)C)c1cc(F)cc(F)c1
(B) C[C@H]1Cn2c(cc(OCc3ccc(Oc4cncc(Cl)c4)c(F)c3)nc2=O)N1C
(C) CN1c2cc(OCc3ccc(Oc4cncc(Cl)c4)c(F)c3)nc(=O)n2CC1(C)C
Input line: List items by IC50 in falling order. // respond by listing labels in the order requested
Output line: A, B, C

(a) CN1c2cc(OCc3cc(F)cc(F)c3)nc(=O)n2CC1(C)C
(b) C[C@H]1Cn2c(cc(OCc3cc(F)c(Oc4cncc(C(F)(F)F)c4)c(F)c3)nc2=O)N1C
(c) CN1c2cc(OCc3ccc(F)c(C#N)c3)nc(=O)n2CC1(C)C
(d) CN1c2cc(OCc3cc(F)c(Oc4ccc(C(F)(F)F)nc4)c(F)c3)nc(=O)n2CC1(C)C
(e) CC(C)N1c2cc(OCc3cccc(F)c3F)nc(=O)n2CC1(C)C
Input line: Order the items by recorded IC50; the first position goes to the largest value. Thanks in advance for listing the labels in the requested order.
Output line: e, a, c, b, d
